system.tested: UniProt P30304
Sequence (P30304 whole entry, species assumed): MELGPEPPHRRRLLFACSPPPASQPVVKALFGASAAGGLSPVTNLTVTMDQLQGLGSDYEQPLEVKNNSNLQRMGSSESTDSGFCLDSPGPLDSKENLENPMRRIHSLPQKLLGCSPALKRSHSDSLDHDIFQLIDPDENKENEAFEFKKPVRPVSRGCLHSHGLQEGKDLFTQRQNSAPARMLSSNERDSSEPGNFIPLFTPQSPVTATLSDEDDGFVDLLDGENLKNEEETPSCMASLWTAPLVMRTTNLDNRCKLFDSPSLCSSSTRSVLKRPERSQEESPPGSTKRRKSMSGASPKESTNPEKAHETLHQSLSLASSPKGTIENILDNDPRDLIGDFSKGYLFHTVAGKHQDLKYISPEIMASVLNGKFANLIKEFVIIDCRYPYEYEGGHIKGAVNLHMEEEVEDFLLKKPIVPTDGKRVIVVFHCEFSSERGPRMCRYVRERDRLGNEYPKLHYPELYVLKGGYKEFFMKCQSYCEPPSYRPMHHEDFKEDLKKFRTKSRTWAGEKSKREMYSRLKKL
assay.details: Cdc25A phosphatase inhibition screen at 50 μM
Assay type: biochemical
condition.description: read-out: Percent Inhibition at 50 uM compound, Cdc25 A
Mark -1 for inhibition at 50 µM values under 90%, and 1 for everything at or above.

Use these answered entries as a reference point.
mol | group.label
O=C1C=C(O)C(=O)C(c2c(C3CC3)[nH]c3ccccc23)=C1O | -1
COC1=CC(=O)C(OC)=C(c2c[nH]c3c(F)cccc23)C1=O | -1
Cc1ccc2[nH]cc(C3=C(O)C(=O)C=C(O)C3=O)c2c1 | 1
O=C1C=C(O)C(=O)C(c2c[nH]c3c(OCc4ccccc4)cccc23)=C1O | 1
C=CC(C)(C)c1[nH]c2ccccc2c1C1=C(O)C(=O)C=C(O)C1=O | -1
O=C1C=C(O)C(=O)C(c2c[nH]c3cccc(F)c23)=C1O | -1

Switching to the query record.
Query block: Does the reported inhibition at 50 µM for CCc1[nH]c2ccccc2c1C1=C(O)C(=O)C=C(O)C1=O fall at or above the 90% mark?
Result block: -1

Ref: patent US7057052B2
